conditions: 328.15 K; 45000 kPa; Liquid; Vibrating tube method

molecule | mass density / kg/m3
CC(C)CCOCCC(C)C [di-(3-methylbutyl) ether] | 784.15
CCCOCCC [dipropyl ether] | 759.16
CC(C)OC(C)C [diisopropyl ether] | 739.67
CCCCCOCCCCC [dipentyl ether] | 790.5
CCOC(C)(C)C [2-ethoxy-2-methylpropane] | 754.48
CCCCOC [butyl methyl ether] | 756.92
CCCCOCC [butyl ethyl ether] | 760.88

----------
Reported mass density values are given for each entry in this list.
conditions: 303.15 K; 25000 kPa; Liquid; Vibrating tube method

compound | uom | mass density
CCOC(C)(C)C [2-ethoxy-2-methylpropane] | kg/m3 | 757.33
CCCCOC [butyl methyl ether] | kg/m3 | 760.68
CCCOCCC [dipropyl ether] | kg/m3 | 762.61
CC(C)OC(C)C [diisopropyl ether] | kg/m3 | 741.76
CCCCCOCCCCC [dipentyl ether] | kg/m3 | 794.13
CC(C)CCOCCC(C)C [di-(3-methylbutyl) ether] | kg/m3 | 786.98
COC(C)(C)C [2-methoxy-2-methylpropane] | kg/m3 | 757.05
CCCCOCC [butyl ethyl ether] | kg/m3 | 764.45

----------
conditions: 318.15 K; 15000 kPa; Liquid; Vibrating tube method
readout_label: mass density (kg/m3)

compound | measured_number
CCOC(C)(C)C [2-ethoxy-2-methylpropane] | 733.82
COC(C)(C)C [2-methoxy-2-methylpropane] | 733.26
CCCOCCC [dipropyl ether] | 740.33
CCCCOC [butyl methyl ether] | 737.77
CCCCCOCCCCC [dipentyl ether] | 775.84
CC(C)OC(C)C [diisopropyl ether] | 717.51
CCCCOCC [butyl ethyl ether] | 742.41
CC(C)CCOCCC(C)C [di-(3-methylbutyl) ether] | 768.28

----------
Each entry below lists one item and its recorded mass density value.
conditions: 283.15 K; 50000 kPa; Liquid; Vibrating tube method

smiles_repr | uom | mass density
CCCCCOCCCCC | kg/m3 | 822.84
COC(C)(C)C | kg/m3 | 792.86
CCCCOCC | kg/m3 | 798.13
CC(C)CCOCCC(C)C | kg/m3 | 816.37
CC(C)OC(C)C | kg/m3 | 778.13
CCCOCCC | kg/m3 | 796.87
CCOC(C)(C)C | kg/m3 | 792.89
CCCCOC | kg/m3 | 795.45

----------
List of mass density values.
details: 308.15 K; 100 kPa; Liquid; Vibrating tube method

compound | uom | mass density
CCCCCOCCCCC [dipentyl ether] | kg/m3 | 770.87
CCCCOC [butyl methyl ether] | kg/m3 | 730.53
CCCCOCC [butyl ethyl ether] | kg/m3 | 735.39
CC(C)CCOCCC(C)C [di-(3-methylbutyl) ether] | kg/m3 | 762.46
CCOC(C)(C)C [2-ethoxy-2-methylpropane] | kg/m3 | 725.44
CCCOCCC [dipropyl ether] | kg/m3 | 732.8
CC(C)OC(C)C [diisopropyl ether] | kg/m3 | 707.73
COC(C)(C)C [2-methoxy-2-methylpropane] | kg/m3 | 724.69

----------
conditions: 298.15 K; 25000 kPa; Liquid; Vibrating tube method

molecule | mass density, kg/m3
CCCCOC [butyl methyl ether] | 764.97
CCCCCOCCCCC [dipentyl ether] | 797.69
CC(C)OC(C)C [diisopropyl ether] | 745.92
CCCCOCC [butyl ethyl ether] | 768.58
CCCOCCC [dipropyl ether] | 766.81
CC(C)CCOCCC(C)C [di-(3-methylbutyl) ether] | 790.54
COC(C)(C)C [2-methoxy-2-methylpropane] | 761.42
CCOC(C)(C)C [2-ethoxy-2-methylpropane] | 761.61

Sourced from the NIST ThermoML archive (doi:10.1016/j.fluid.2016.02.009)
